Values compiled from ChEMBL document CHEMBL4330087.

- System: Ribosomal RNA A-site
- test.method.notes: Displacement of F-NEO from human mitochondrial rRNA-A site after 10 to 20 mins by fluorescence assay relative to NEO
- Format: nucleic-acid assay
- Set-up: concentration or dose not given beside the values
metric.name: inhibition (%)
Unit % implied. Number only.

Q: Supply reported inhibition belonging to this compound: `NC[C@@H]1O[C@H](O[C@H]2[C@@H](O)[C@H](O[C@@H]3[C@@H](O)[C@H](N)C[C@H](N)[C@H]3O[C@H]3O[C@H](CN)[C@@H](O)[C@H](O)[C@H]3N)O[C@@H]2CSCCNC(=S)NCCCCCCNC(=O)CCCc2ccc3ccc4cccc5ccc2c3c45)[C@H](N)[C@@H](O)[C@@H]1O`
Result: 70

Q: Look up and report measured inhibition for this entry: `NC[C@@H]1O[C@H](O[C@H]2[C@@H](O)[C@H](O[C@@H]3[C@@H](O)[C@H](N)C[C@H](N)[C@H]3O[C@H]3O[C@H](CN)[C@@H](O)[C@H](O)[C@H]3N)O[C@@H]2CNC(=O)Cc2ccc3ccc4cccc5ccc2c3c45)[C@H](N)[C@@H](O)[C@@H]1O`
Result: 47

Q: Please report the measured inhibition for `NC[C@@H]1O[C@H](O[C@H]2[C@@H](O)[C@H](O[C@@H]3[C@@H](O)[C@H](N)C[C@H](N)[C@H]3O[C@H]3O[C@H](CN)[C@@H](O)[C@H](O)[C@H]3N)O[C@@H]2CNC(=O)CCc2ccc3ccc4cccc5ccc2c3c45)[C@H](N)[C@@H](O)[C@@H]1O`
Result: 47

Q: Tell me measured inhibition for `NC[C@@H]1O[C@H](O[C@H]2[C@@H](O)[C@H](O[C@@H]3[C@@H](O)[C@H](N)C[C@H](N)[C@H]3O[C@H]3O[C@H](CN)[C@@H](O)[C@H](O)[C@H]3N)O[C@@H]2CNC(=O)CCCc2ccc3ccc4cccc5ccc2c3c45)[C@H](N)[C@@H](O)[C@@H]1O` please.
Result: 89

---

- System: Ribosomal RNA A-site
- test.method.notes: Binding affinity to rRNA-A site in human MDA-MB-231 cells assessed as inhibition of protein translation
- Assay type: cell-based
Consider the following compounds; for each one, report its pIC50.
Units for pIC50: none; it is -log10 of a concentration expressed in mol/L.

Q: Determine from records and report pIC50 for CC/C(=C(\c1ccccc1)c1ccc(OCCN(C)C)cc1)c1ccccc1 [TAMOXIFEN]
Result: 4.74

Q: Kindly indicate its recorded pIC50. Item: `NC[C@@H]1O[C@H](O[C@H]2[C@@H](O)[C@H](O[C@@H]3[C@@H](O)[C@H](N)C[C@H](N)[C@H]3O[C@H]3O[C@H](CN)[C@@H](O)[C@H](O)[C@H]3N)O[C@@H]2CSCCNC(=O)CCCc2ccc3ccc4cccc5ccc2c3c45)[C@H](N)[C@@H](O)[C@@H]1O`
Result: 6.03

Q: Quickly give me recorded pIC50 for `NC[C@@H]1O[C@H](O[C@H]2[C@@H](O)[C@H](O[C@@H]3[C@@H](O)[C@H](N)C[C@H](N)[C@H]3O[C@H]3O[C@H](CN)[C@@H](O)[C@H](O)[C@H]3N)O[C@@H]2CSCCNC(=O)Cc2ccc3ccc4cccc5ccc2c3c45)[C@H](N)[C@@H](O)[C@@H]1O`
Result: 6.57

Q: Provide only the value of recorded pIC50 for `NC[C@@H]1O[C@H](O[C@H]2[C@@H](O)[C@H](O[C@@H]3[C@@H](O)[C@H](N)C[C@H](N)[C@H]3O[C@H]3O[C@H](CN)[C@@H](O)[C@H](O)[C@H]3N)O[C@@H]2CSCCNC(=S)NCCCCCCNC(=O)CCCc2ccc3ccc4cccc5ccc2c3c45)[C@H](N)[C@@H](O)[C@@H]1O`
Result: 6.67

Q: For NC[C@@H]1O[C@H](O[C@H]2[C@@H](O)[C@H](O[C@@H]3[C@@H](O)[C@H](N)C[C@H](N)[C@H]3O[C@H]3O[C@H](CN)[C@@H](O)[C@H](O)[C@H]3N)O[C@@H]2CO)[C@H](N)[C@@H](O)[C@@H]1O [FRAMYCETIN] , write its pIC50.
Result: 6.86
